B1: SOAT1 (parent)
chain: GVLILFLTFFAFLHCWLNAFAEML

Variants of: B1
Assay: protein stability index of a GFP-peptide fusion (GPS, HEK-293T) (PSI 1-6); higher = more stable;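 also: lentivirally expressed fusions sorted by FACS into six bins by GFP to DsRed ratio, PSI derived from sequencing read proportions per bin multiplied by bin number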
Conditions: c terminus: a fixed tail appended
readout: protein stability index

>  <inputSequence>
GVLILFLTFFAFLHCWLNAFAPML [E22P]

>  <valueReported>
3.59

$$$$
>  <inputSequence>
GVLILFLTFIAFLHCWLNAFAEML [F10I]

>  <valueReported>
2.54

$$$$
>  <inputSequence>
GVLIGFLTFFAFLHCWLNAFAEML [L5G]

>  <valueReported>
2.13

$$$$
>  <inputSequence>
GVLILFLTFFAFLHCWLNAFAEMS [L24S]

>  <valueReported>
3.29

$$$$
>  <inputSequence>
GVLILFLTFFAFLHCWLNAFAEPL [M23P]

>  <valueReported>
3.44

$$$$
>  <inputSequence>
GNLILFLTFFAFLHCWLNAFAEML [V2N]

>  <valueReported>
1.42

$$$$
>  <inputSequence>
GVLIEFLTFFAFLHCWLNAFAEML [L5E]

>  <valueReported>
3.38

$$$$
>  <inputSequence>
GVLILFLTFFAFLHCWLNANAEML [F20N]

>  <valueReported>
2.01

$$$$
>  <inputSequence>
GVLILFLTFFAFLHCWLNAGAEML [F20G]

>  <valueReported>
2.22

$$$$
>  <inputSequence>
YVLILFLTFFAFLHCWLNAFAEML [G1Y]

>  <valueReported>
2.49

$$$$
>  <inputSequence>
GVLILFLTFFAFLHCWLNRFAEML [A19R]

>  <valueReported>
1.64

$$$$
>  <inputSequence>
GDLILFLTFFAFLHCWLNAFAEML [V2D]

>  <valueReported>
2.14

$$$$
>  <inputSequence>
GVLWLFLTFFAFLHCWLNAFAEML [I4W]

>  <valueReported>
2.43

$$$$
>  <inputSequence>
GVLILFLTFFAFLHCNLNAFAEML [W16N]

>  <valueReported>
2.59

$$$$
>  <inputSequence>
GVLILFLTFFAFCHCWLNAFAEML [L13C]

>  <valueReported>
2.83

$$$$
>  <inputSequence>
GVLILFLTFFAFLHCWLNEFAEML [A19E]

>  <valueReported>
3.48

$$$$
>  <inputSequence>
GVLILFLTFFAFLHGWLNAFAEML [C15G]

>  <valueReported>
2.01

$$$$
>  <inputSequence>
GVLILFLTFFAFLHCWLNAFAECL [M23C]

>  <valueReported>
3.08

$$$$
>  <inputSequence>
GVLILFLTFFAFNHCWLNAFAEML [L13N]

>  <valueReported>
3.07

$$$$
>  <inputSequence>
GVLILFLTFFGFLHCWLNAFAEML [A11G]

>  <valueReported>
1.15

$$$$
>  <inputSequence>
GVLILFLTFFANLHCWLNAFAEML [F12N]

>  <valueReported>
3

$$$$
>  <inputSequence>
GVCILFLTFFAFLHCWLNAFAEML [L3C]

>  <valueReported>
3.65

$$$$

This collection of values is drawn from the supplement of paper PMC10567573.
